Biological target: VR1 (rat) (Rattus norvegicus, UniProt O35433)
Sequence (O35433 whole entry): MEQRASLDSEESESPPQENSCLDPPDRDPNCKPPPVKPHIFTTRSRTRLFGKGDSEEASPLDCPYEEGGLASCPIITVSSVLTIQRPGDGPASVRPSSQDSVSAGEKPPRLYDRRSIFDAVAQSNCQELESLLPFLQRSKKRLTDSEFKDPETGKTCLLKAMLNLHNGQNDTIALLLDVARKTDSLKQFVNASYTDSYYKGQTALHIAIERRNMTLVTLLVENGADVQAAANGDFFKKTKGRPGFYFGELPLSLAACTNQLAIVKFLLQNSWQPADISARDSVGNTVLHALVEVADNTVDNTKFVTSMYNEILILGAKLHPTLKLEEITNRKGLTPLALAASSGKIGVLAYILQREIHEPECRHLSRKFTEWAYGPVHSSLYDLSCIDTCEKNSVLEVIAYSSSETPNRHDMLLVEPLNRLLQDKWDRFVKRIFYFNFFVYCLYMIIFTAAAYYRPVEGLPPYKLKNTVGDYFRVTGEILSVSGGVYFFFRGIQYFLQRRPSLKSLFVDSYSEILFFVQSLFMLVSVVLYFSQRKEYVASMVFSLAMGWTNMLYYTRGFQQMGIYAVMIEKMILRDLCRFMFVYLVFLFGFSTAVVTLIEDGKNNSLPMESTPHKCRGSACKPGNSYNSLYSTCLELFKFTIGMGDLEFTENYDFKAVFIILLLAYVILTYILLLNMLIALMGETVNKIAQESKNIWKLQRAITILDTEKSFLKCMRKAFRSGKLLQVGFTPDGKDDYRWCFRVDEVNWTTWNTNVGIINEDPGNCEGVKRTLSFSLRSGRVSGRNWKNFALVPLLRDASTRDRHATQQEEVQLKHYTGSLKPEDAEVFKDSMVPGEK
Experiment: Functional FLIPR Ca2+ inflow assay on rat-species vanilloid receptor 1 in rat dorsal root ganglia cells
Settings: against capsaicin (CAP)
parameterMeasured: Ki
Show the value, then the unit it is measured in.

Incoming: # lookup: Ki of CC(C)(C)[C@H]1CC[C@@]2(CC1)CC(C(=O)N1CCN(c3ncccc3C(F)(F)F)CC1)=NO2
Outgoing: 894 nM

Incoming: I have this molecule here, CCC(C)(C)C1CCC2(CC1)CC(C(=O)NCc1ccc(NS(C)(=O)=O)c(F)c1)=NO2 (stereo not shown) , and I need its recorded Ki.
Outgoing: 341 nM

Incoming: Using the record for CC(C)(C)c1ccc(NC(=O)C2CCC3(CC2)CC(c2ccccc2)=NO3)cc1 (stereo not shown) , report its Ki.
Outgoing: 63.7 nM

Incoming: Sample CC(C)(C)[C@H]1CC[C@@]2(CC1)CC(C(=O)NCc1ccc(NS(C)(=O)=O)c(F)c1)=NO2 — what was its Ki?
Outgoing: 79.7 nM
